# Test summary: NCI Yeast Anticancer Drug Screen. Data for the bub3 strain (AID 167)
# Reported conditions: S. cerevisiae bub3 mutant strain, at 50.0 µM, active compounds read high
Compounds without any hit were thinned out: in the full panel of roughly 79,000, 15% have a hit.
Property: growth inhibition; scope: individual molecules
Only the number, expressed in %, is required.

Sample answers from the record:
Molecule	growth inhibition (%)
CC1CC(Cc2ccccc2CC2CC(C)OC2=O)C(=O)O1 (configuration not stated)	10.8
CCOC(=O)C(C)c1nc2cc(N3CCOCC3)c(F)cc2[nH]c1=O (configuration not stated)	5.7
Nc1ccc(S(=O)(=O)Nc2ccc([N+](=O)[O-])cn2)cc1	-20.4

Would you kindly share the measured growth inhibition for CCC(CC)C(=O)OCCCC1CCCO1 (configuration not stated) ?
-3.95

Would you kindly share the measured growth inhibition for CCNCC1COc2ccccc2O1 (configuration not stated) ?
-4.8

Would you kindly share the measured growth inhibition for `NC(=S)NNC(=S)NC(=O)c1ccco1` ?
22.1

Would you kindly share the measured growth inhibition for CCC(C)(O)C(=O)O (configuration not stated) ?
-13.3
